Quick list: pEC50 per entry.
target: T1, human αvβ5 expressed on BaF3 cells (stably transfected with human αv and β5 subunits) (human, UniProt P06756 31-1048; P18084 24-799); assay: FACS on αvβ5-BaF3 cells, unpurified antibody
T1 construct: also called αvβ5-BaF3; BaF3-hu αvβ5
T1 sequence (P06756 31-1048 limits assumed, chain 1 of 2): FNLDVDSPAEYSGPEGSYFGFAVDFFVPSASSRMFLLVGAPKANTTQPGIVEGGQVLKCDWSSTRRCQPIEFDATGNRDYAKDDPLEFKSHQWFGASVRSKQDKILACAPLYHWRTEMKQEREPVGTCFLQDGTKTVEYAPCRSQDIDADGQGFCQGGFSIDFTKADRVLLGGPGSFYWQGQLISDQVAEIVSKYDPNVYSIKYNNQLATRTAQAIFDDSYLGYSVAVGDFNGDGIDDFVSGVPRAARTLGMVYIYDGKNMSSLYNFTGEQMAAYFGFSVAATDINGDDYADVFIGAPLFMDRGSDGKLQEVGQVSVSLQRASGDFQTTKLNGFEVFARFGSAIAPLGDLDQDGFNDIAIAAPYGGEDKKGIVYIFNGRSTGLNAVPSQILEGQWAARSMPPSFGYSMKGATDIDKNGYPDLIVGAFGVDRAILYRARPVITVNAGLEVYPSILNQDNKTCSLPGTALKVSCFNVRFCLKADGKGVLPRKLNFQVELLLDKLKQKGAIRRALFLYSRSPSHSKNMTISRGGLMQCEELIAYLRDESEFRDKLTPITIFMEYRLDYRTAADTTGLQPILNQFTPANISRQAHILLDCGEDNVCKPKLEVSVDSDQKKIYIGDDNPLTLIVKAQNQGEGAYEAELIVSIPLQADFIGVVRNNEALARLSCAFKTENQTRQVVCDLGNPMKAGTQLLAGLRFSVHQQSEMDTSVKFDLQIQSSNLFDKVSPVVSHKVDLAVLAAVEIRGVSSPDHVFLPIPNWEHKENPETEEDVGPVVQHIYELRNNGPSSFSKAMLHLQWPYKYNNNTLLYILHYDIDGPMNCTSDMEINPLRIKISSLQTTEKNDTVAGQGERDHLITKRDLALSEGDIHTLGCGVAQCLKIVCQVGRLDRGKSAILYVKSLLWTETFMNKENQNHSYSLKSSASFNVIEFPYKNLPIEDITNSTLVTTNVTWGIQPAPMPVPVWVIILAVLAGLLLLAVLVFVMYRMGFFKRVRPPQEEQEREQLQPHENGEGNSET
T1 sequence (P18084 24-799 limits assumed, chain 2 of 2): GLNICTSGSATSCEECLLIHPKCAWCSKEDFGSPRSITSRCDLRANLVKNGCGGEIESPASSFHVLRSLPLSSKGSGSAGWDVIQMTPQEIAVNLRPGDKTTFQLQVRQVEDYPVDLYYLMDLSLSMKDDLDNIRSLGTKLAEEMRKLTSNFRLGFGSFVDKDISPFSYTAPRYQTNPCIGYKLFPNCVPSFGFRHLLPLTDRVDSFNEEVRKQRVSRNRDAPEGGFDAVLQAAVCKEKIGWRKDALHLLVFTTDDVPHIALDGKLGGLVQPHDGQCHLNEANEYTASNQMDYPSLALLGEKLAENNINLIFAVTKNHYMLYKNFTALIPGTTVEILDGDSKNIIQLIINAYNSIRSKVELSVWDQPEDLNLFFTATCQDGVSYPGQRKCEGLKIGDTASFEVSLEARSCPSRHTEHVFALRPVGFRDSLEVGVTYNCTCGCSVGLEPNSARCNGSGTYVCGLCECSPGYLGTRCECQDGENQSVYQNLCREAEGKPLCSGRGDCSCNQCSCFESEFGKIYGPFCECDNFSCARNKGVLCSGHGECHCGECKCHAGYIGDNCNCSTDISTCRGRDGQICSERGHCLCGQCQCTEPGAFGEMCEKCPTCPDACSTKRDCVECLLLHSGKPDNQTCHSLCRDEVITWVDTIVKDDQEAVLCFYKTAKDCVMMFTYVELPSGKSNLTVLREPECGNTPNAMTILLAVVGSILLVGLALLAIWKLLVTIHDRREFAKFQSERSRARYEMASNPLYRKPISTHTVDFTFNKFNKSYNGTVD
Note: pEC50 values are expressed as the negative base-10 logarithm of concentration in M.

VH4/VL3 Agly-hIgG1(T299A) (antibody, V domains shown, also called H4/L3) VH: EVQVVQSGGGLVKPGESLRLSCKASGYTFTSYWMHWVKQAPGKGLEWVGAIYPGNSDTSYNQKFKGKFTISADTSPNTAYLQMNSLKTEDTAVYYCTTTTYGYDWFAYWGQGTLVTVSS VL: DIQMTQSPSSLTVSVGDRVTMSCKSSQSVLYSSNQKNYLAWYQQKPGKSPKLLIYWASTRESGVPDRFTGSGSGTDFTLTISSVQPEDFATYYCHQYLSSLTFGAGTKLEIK | 6.79

Could you now consider this next binder?
Dear colleague, I am looking for the recorded pEC50 of the following binder: VH0/VL2 Agly-hIgG1(T299A) (antibody, V domains shown, also called H0/L2) VH: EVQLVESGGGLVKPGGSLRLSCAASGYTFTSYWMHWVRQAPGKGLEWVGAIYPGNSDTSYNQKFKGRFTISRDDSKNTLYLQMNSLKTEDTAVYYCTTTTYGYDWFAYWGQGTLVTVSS VL: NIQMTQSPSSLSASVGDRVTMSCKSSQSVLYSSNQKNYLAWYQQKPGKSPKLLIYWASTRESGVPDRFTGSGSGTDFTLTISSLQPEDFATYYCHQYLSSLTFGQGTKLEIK
6.07
